# Test system: BaF3
# procedureText: Antiproliferative activity against mouse BAF3 cells harboring FL-EGFR D770-N771 ins NPG mutant after 72 hrs by celltiter-Glo luminescence assay
# Type: functional, cell-based
# details: BaF3, 72 h
pIC50: −log10 of the molar value.
// reported pIC50 for each item listed
readoutType: pIC50

[[record]]
compound = "C=CC(=O)N1CCC(Oc2cc3c(Nc4ccc(Cl)c(Cl)c4F)ncnc3cc2OC)CC1 [POZIOTINIB]"
assayvalue = 9.21

[[record]]
compound = "C=CC(=O)N1CCC(Oc2cc3c(Nc4cccc(Cl)c4F)ncnc3cc2O[C@H]2CCOC2)CC1"
assayvalue = 9.10

[[record]]
compound = "C=CC(=O)N1CCC(Oc2cc3c(Nc4ccc(Cl)c(Cl)c4F)ncnc3cc2O[C@H]2CCOC2)CC1"
assayvalue = 9.02

[[record]]
compound = "CN(C)C/C=C/C(=O)Nc1cc2c(Nc3ccc(F)c(Cl)c3)ncnc2cc1O[C@H]1CCOC1 [AFATINIB]"
assayvalue = 7.42

